# Test system: SARS-CoV-2 (Delta, B.1.617.2)
# METHOD: microbe, parasite or virus in culture
# Type: cell-based
# MEASUREMENT CONTEXT: Severe acute respiratory syndrome coronavirus 2, Vero C1008, delta, 5 uM, Vero E6, replicates
MEASURE NAME: inhibition at 5 µM (%)
Use % as the unit, but write only the number.

Challenge: Give inhibition at 5 µM for the following molecule: CC(C)CC(=O)OC[C@H]1O[C@@](C#N)(c2ccc3c(N)ncnn23)[C@H](O)[C@@H]1O
Response given: 93.9

Challenge: Retrieve inhibition at 5 µM measured for CC(C)C(=O)OC[C@H]1O[C@@](C#N)(c2ccc3c(N)ncnn23)[C@H](O)[C@@H]1O and print it.
Response given: 95.5

Challenge: For the molecule N#C[C@@]1(c2ccc3c(N)ncnn23)O[C@H](COC(=O)c2ccccc2)[C@@H](O)[C@H]1O , give its measured inhibition at 5 µM value.
Response given: 96.1

Challenge: Supply measured inhibition at 5 µM of CCCC(=O)OC[C@H]1O[C@@](C#N)(c2ccc3c(N)ncnn23)[C@H](O)[C@@H]1O in your reply.
Response given: 91.8

Challenge: Write down inhibition at 5 µM measured for item N#C[C@@]1(c2ccc3c(N)ncnn23)O[C@H](CO)[C@@H](O)[C@H]1O [GS-441524, reference compound]
Response given: 97

Challenge: Determine its reported inhibition at 5 µM: CCC(CC)C(=O)OC[C@H]1O[C@@](C#N)(c2ccc3c(N)ncnn23)[C@H](O)[C@@H]1O
Response given: 94.6

Challenge: Return value of inhibition at 5 µM for input CCC(CC)COC(=O)[C@H](C)N[P@](=O)(OC[C@H]1O[C@@](C#N)(c2ccc3c(N)ncnn23)[C@H](O)[C@@H]1O)Oc1ccccc1 [Remdesivir, remdesivir, reference compound] , no commentary.
Response given: 77.1

###

# Tested on: SARS-CoV-2 (B.1)
# METHOD: Anti-SARS-CoV-2 activity in Vero E6 cells (viral yield by qRT-PCR)
# Type: cell-based
# MEASUREMENT CONTEXT: Severe acute respiratory syndrome coronavirus 2, Vero C1008, B.1, 5 uM, Vero E6, replicates
Assignment: determine reported inhibition at 5 µM for the given molecules.
I only need the number, in %, no unit after it.

Challenge: Supply recorded inhibition at 5 µM for CC(C)CC(=O)OC[C@H]1O[C@@](C#N)(c2ccc3c(N)ncnn23)[C@H](O)[C@@H]1O here.
Response given: 99.6

Challenge: Give the reported inhibition at 5 µM for this molecule. N#C[C@@]1(c2ccc3c(N)ncnn23)O[C@H](CO)[C@@H](O)[C@H]1O [GS-441524, reference compound]
Response given: 95.7

Challenge: Consider the molecule N#C[C@@]1(c2ccc3c(N)ncnn23)O[C@H](COC(=O)c2ccccc2)[C@@H](O)[C@H]1O . State its measured inhibition at 5 µM.
Response given: 99.5

Challenge: Tell me inhibition at 5 µM reported for CCC(CC)C(=O)OC[C@H]1O[C@@](C#N)(c2ccc3c(N)ncnn23)[C@H](O)[C@@H]1O
Response given: 99.5

Challenge: Given the molecule CCCC(=O)OC[C@H]1O[C@@](C#N)(c2ccc3c(N)ncnn23)[C@H](O)[C@@H]1O , write its reported inhibition at 5 µM.
Response given: 99.8

Challenge: Provide only the value of recorded inhibition at 5 µM for CC(C)C(=O)OC[C@H]1O[C@@](C#N)(c2ccc3c(N)ncnn23)[C@H](O)[C@@H]1O
Response given: 99.8

Challenge: Supply reported inhibition at 5 µM belonging to this molecule: CCC(CC)COC(=O)[C@H](C)N[P@](=O)(OC[C@H]1O[C@@](C#N)(c2ccc3c(N)ncnn23)[C@H](O)[C@@H]1O)Oc1ccccc1 [Remdesivir, remdesivir, reference compound]
Response given: 94.6
